# protocol: Pharmacokinetic study in rats, plasma (LC/MS/MS, non-compartmental)
# Assay type: in vivo, rat
# cond: rat, plasma, ip, 5 mg/kg, rats, EMD386088 alone (2.5 and 5 mg/kg) i.p.; read-out: t max (time to maximum concentration in the blood) (converted)
metric: Tmax

Query string: State its Tmax for this compound: Cc1[nH]c2ccc(Cl)cc2c1C1=CCNCC1.Cl
Result string: 5 min

---

# protocol: Pharmacokinetic study in rats, plasma (LC/MS/MS, non-compartmental)
# Type: in vivo, rat
# cond: rat, plasma, ip, 2.5 mg/kg, rat plasma, EMD386088 2.5 mg/kg i.p. alone
metric: AUC(0-t) (ng·h/mL)
// note: answer is a bare numeric in ng·h/mL

Query string: State its AUC(0-t) for this molecule: Cc1[nH]c2ccc(Cl)cc2c1C1=CCNCC1.Cl [EMD386088]
Result string: 36.8

---

# protocol: Distribution of EMD386088 in rats' brain (LC/MS/MS, non-compartmental)
# Format: in vivo, rat
# cond: ip; rat brain, EMD386088 2.5 mg/kg i.p. alone; read-out: t max (converted)
metric: Tmax (h)
// note: answer is a bare numeric in h

Query string: State its Tmax for this molecule: Cc1[nH]c2ccc(Cl)cc2c1C1=CCNCC1.Cl
Result string: 2

---

# protocol: Pharmacokinetic study in rats, plasma (LC/MS/MS, non-compartmental)
# Assay type: in vivo, rat
# cond: rat, plasma, ip, 5 mg/kg, rat plasma, EMD386088 5 mg/kg i.p. alone
metric: Cmax

Query string: State its Cmax for this compound: Cc1[nH]c2ccc(Cl)cc2c1C1=CCNCC1.Cl
Result string: 45.2 ng/mL

---

# protocol: Distribution of EMD386088 in rats' brain (LC/MS/MS, non-compartmental)
# Assay type: in vivo, rat
# cond: rat, brain, ip, 2.5 mg/kg, rat brain, EMD386088 2.5 mg/kg i.p. alone
metric: Cmax (ng/g)
// note: answer is a bare numeric in ng/g

Query string: State its Cmax for this compound: Cc1[nH]c2ccc(Cl)cc2c1C1=CCNCC1.Cl [EMD386088]
Result string: 321

---

# protocol: Distribution of EMD386088 in rats' brain (LC/MS/MS, non-compartmental)
# Format: in vivo, rat
# cond: rat, brain, ip, 5 mg/kg, rat brain, EMD386088 5 mg/kg i.p. alone
metric: Cmax (ng/g)
// note: answer is a bare numeric in ng/g

Query string: State its Cmax for this molecule: Cc1[nH]c2ccc(Cl)cc2c1C1=CCNCC1.Cl
Result string: 640

---

# protocol: Pharmacokinetic study in rats, plasma (LC/MS/MS, non-compartmental)
# Type: in vivo, rat
# cond: rat, plasma, ip, 5 mg/kg, rat plasma, EMD386088 5 mg/kg i.p. alone; read-out: t1/2
metric: half-life (h)
// note: answer is a bare numeric in h

Query string: State its half-life for this compound: Cc1[nH]c2ccc(Cl)cc2c1C1=CCNCC1.Cl
Result string: 1.08

---

# protocol: Distribution of EMD386088 in rats' brain (LC/MS/MS, non-compartmental)
# Assay type: in vivo, rat
# cond: rat, brain, ip, 2.5 mg/kg, rat brain, EMD386088 2.5 mg/kg i.p. jointly with imipramine (IMI) 15 mg/kg i.p.
metric: Cmax (ng/g)
// note: answer is a bare numeric in ng/g

Query string: State its Cmax for this compound: Cc1[nH]c2ccc(Cl)cc2c1C1=CCNCC1.Cl
Result string: 277

---

# protocol: Pharmacokinetic study in rats, plasma (LC/MS/MS, non-compartmental)
# Assay type: in vivo, rat
# cond: rat, plasma, ip, 2.5 mg/kg, rat plasma, EMD386088 2.5 mg/kg i.p. alone
metric: CL/F (mL/min/kg)
// note: answer is a bare numeric in mL/min/kg

Query string: State its CL/F for this compound: Cc1[nH]c2ccc(Cl)cc2c1C1=CCNCC1.Cl
Result string: 1050

---

# protocol: Distribution of EMD386088 in rats' brain (LC/MS/MS, non-compartmental)
# Type: in vivo, rat
# cond: rat, brain, ip; rats, after i.p. administration; read-out: t max in the brain (converted)
metric: Tmax (h)
// note: answer is a bare numeric in h

Query string: State its Tmax for this molecule: Cc1[nH]c2ccc(Cl)cc2c1C1=CCNCC1.Cl
Result string: 2

---

# protocol: Pharmacokinetic study in rats, plasma (LC/MS/MS, non-compartmental)
# Type: in vivo, rat
# cond: rat, plasma, ip, 2.5 mg/kg, rat plasma, EMD386088 2.5 mg/kg i.p. jointly with imipramine (IMI) 15 mg/kg i.p.; read-out: V d/F
metric: Vd/F (L/kg)
// note: answer is a bare numeric in L/kg

Query string: State its Vd/F for this compound: Cc1[nH]c2ccc(Cl)cc2c1C1=CCNCC1.Cl
Result string: 32.2

---

# protocol: Pharmacokinetic study in rats, plasma (LC/MS/MS, non-compartmental)
# Assay type: in vivo, rat
# cond: rat, plasma, ip, 5 mg/kg, rat plasma, EMD386088 5 mg/kg i.p. alone
metric: AUC(0-t)

Query string: State its AUC(0-t) for this molecule: Cc1[nH]c2ccc(Cl)cc2c1C1=CCNCC1.Cl [EMD386088]
Result string: 75.5 ng·h/mL

---

# protocol: Pharmacokinetic study in rats, plasma (LC/MS/MS, non-compartmental)
# Assay type: in vivo, rat
# cond: rat, plasma, ip, rats, EMD386088 alone i.p.; read-out: volume of distribution V d/F
metric: Vd/F (L/kg)
// note: answer is a bare numeric in L/kg

Query string: State its Vd/F for this compound: Cc1[nH]c2ccc(Cl)cc2c1C1=CCNCC1.Cl
Result string: 102

---

# protocol: Pharmacokinetic study in rats, plasma (LC/MS/MS, non-compartmental)
# Type: in vivo, rat
# cond: rat, plasma, ip, 2.5 mg/kg, rat plasma, EMD386088 2.5 mg/kg i.p. jointly with imipramine (IMI) 15 mg/kg i.p.
metric: Cmax (ng/mL)
// note: answer is a bare numeric in ng/mL

Query string: State its Cmax for this compound: Cc1[nH]c2ccc(Cl)cc2c1C1=CCNCC1.Cl
Result string: 49

---

# protocol: Pharmacokinetic study in rats, plasma (LC/MS/MS, non-compartmental)
# Format: in vivo, rat
# cond: rat, plasma, ip, 2.5 mg/kg, rat plasma, EMD386088 2.5 mg/kg i.p. alone; read-out: t max (converted)
metric: Tmax (min)
// note: answer is a bare numeric in min

Query string: State its Tmax for this compound: Cc1[nH]c2ccc(Cl)cc2c1C1=CCNCC1.Cl [EMD386088]
Result string: 5

---

# protocol: Distribution of EMD386088 in rats' brain (LC/MS/MS, non-compartmental)
# Type: in vivo, rat
# cond: rat, brain, ip; rats, EMD386088 2.5 mg/kg i.p. alone; calculated on the basis of AUC0 → t values; read-out: brain/plasma ratio
metric: Kp

Query string: State its Kp for this compound: Cc1[nH]c2ccc(Cl)cc2c1C1=CCNCC1.Cl [EMD386088]
Result string: ~19

---

# protocol: Pharmacokinetic study in rats, plasma (LC/MS/MS, non-compartmental)
# Type: in vivo, rat
# cond: rat, plasma, ip, 2.5 mg/kg, rat plasma, EMD386088 2.5 mg/kg i.p. alone
metric: MRT (h)
// note: answer is a bare numeric in h

Query string: State its MRT for this compound: Cc1[nH]c2ccc(Cl)cc2c1C1=CCNCC1.Cl
Result string: 1.31

---

# target.or.test.system: recombinant human CYP2D6 (Homo sapiens, UniProt P10635)
# Sequence (P10635 whole entry): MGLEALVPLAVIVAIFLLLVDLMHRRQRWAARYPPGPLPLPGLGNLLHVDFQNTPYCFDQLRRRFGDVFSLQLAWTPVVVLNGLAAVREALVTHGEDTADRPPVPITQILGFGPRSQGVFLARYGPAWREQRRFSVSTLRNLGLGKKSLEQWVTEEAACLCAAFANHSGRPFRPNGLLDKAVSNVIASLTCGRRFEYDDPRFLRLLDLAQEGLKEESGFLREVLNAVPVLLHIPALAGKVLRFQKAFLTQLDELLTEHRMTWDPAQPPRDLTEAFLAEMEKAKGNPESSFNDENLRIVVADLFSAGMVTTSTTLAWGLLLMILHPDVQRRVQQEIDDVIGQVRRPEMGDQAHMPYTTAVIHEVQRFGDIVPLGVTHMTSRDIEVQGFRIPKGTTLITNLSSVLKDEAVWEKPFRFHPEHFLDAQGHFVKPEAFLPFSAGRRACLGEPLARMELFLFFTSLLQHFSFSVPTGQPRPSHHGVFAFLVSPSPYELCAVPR
# protocol: Luminescent CYP2D6 P450-Glo assay
# cond: read-out: IC 50 CYP2D6
metric: IC50 (µM)
// note: answer is a bare numeric in µM

Query string: State its IC50 for this compound: Cc1[nH]c2ccc(Cl)cc2c1C1=CCNCC1.Cl
Result string: 2.25

---

# protocol: Distribution of EMD386088 in rats' brain (LC/MS/MS, non-compartmental)
# Format: in vivo, rat
# cond: ip; rat brain, EMD386088 5 mg/kg i.p. alone; read-out: t max (converted)
metric: Tmax (h)
// note: answer is a bare numeric in h

Query string: State its Tmax for this molecule: Cc1[nH]c2ccc(Cl)cc2c1C1=CCNCC1.Cl [EMD386088]
Result string: 2

---

# protocol: Pharmacokinetic study in rats, plasma (LC/MS/MS, non-compartmental)
# Type: in vivo, rat
# cond: rat, plasma, ip, 5 mg/kg, rat plasma, EMD386088 5 mg/kg i.p. alone
metric: MRT (h)
// note: answer is a bare numeric in h

Query string: State its MRT for this compound: Cc1[nH]c2ccc(Cl)cc2c1C1=CCNCC1.Cl [EMD386088]
Result string: 1.3

---

# protocol: Pharmacokinetic study in rats, plasma (LC/MS/MS, non-compartmental)
# Format: in vivo, rat
# cond: rat, plasma, ip, 2.5 mg/kg, rat plasma, EMD386088 2.5 mg/kg i.p. alone; read-out: V d/F
metric: Vd/F (L/kg)
// note: answer is a bare numeric in L/kg

Query string: State its Vd/F for this compound: Cc1[nH]c2ccc(Cl)cc2c1C1=CCNCC1.Cl [EMD386088]
Result string: 102
